# Study Target: full-length hepatitis C viral protein NS3•4A (Hepatitis C virus genotype 1a)
# Construct: hexa-histidine (N); made in house; host or cells: Sf9 insect cells (baculovirus, pVL1392)
# Protocol: biochemical
# Design: species or system HCV sub-type strain 1a
# Condition Description: Enzyme Assay 2, HCV NS3 Peptide Cleavage Assay, apparent Ki
Measured Ki by item
Parameter Measured: Ki

- CCOc1c(C)cc(C2=NO[C@]3(C2)C[C@@H](C(=O)N[C@@H](CC2CC2)C(=O)C(N)=O)N(C(=O)[C@@H](NC(=O)CC2CCCCC2)C(C)(C)C)C3)cc1C: < 100 nM
- CCC[C@H](NC(=O)[C@@H]1C[C@]2(CC(N3CCc4ccccc4C3)=NO2)CN1C(=O)[C@@H](NC(=O)OC1CCCC1)C(C)(C)C)C(=O)C(=O)NC1CC1: 100 to 500 nM
- CCC[C@H](NC(=O)[C@@H]1C[C@]2(CC(c3cccc(Cl)c3)=NO2)CN1C(=O)[C@@H](NC(=O)[C@H]1CC12CCOCC2)C(C)(C)C)C(=O)C(=O)NC1CC1: < 100 nM
- CCNC(=O)C(=O)[C@H](CC1CC1)NC(=O)[C@@H]1C[C@]2(CC(c3cccc(Cl)c3)=NO2)CN1C(=O)[C@@H](NC(=O)CC1CCCCC1)C(C)(C)C: < 100 nM
- CNC(=O)C(=O)[C@H](CC1CC1)NC(=O)[C@@H]1C[C@]2(CC(c3cc(Cl)ccc3OC)=NO2)CN1C(=O)[C@@H](NC(=O)[C@H]1C[C@@H]1c1ccccc1)C(C)(C)C: < 100 nM

* * *

# Study Target: HCV NS3 protease domain (Hepatitis C virus genotype 1b, UniProt Q9WMX2)
# Construct: The first 181 amino acids of NS3 (residues 1027-1207 of the viral polyprotein); hexa-histidine (C); made in house; host or cells: E. coli BL21/DE3 pLysS
# Protocol: biochemical
# Condition Description: Enzyme Assay 1 (HCV NS3 Protease Domain Peptide Cleavage Assay) activity, apparent Ki class
Parameter Measured: Ki

* CCC[C@H](NC(=O)[C@@H]1C[C@]2(CC(c3ccc4c(c3)OCO4)=NO2)CN1C(=O)[C@@H](NC(=O)O[C@H]1CCOC1)C(C)(C)C)C(=O)C(N)=O | 100 to 500 nM
* CCC[C@H](NC(=O)[C@@H]1C[C@]2(CC(c3cccc(Cl)c3)=NO2)CN1C(=O)CNC(=O)OCC)C(=O)C(=O)NC1CC1 | > 500 nM
* CCC[C@H](NC(=O)C1C[C@]2(CC(c3ccc(C(F)(F)F)cc3)=NO2)CN1C(=O)[C@@H](NC(=O)O[C@H]1CCOC1)C(C)(C)C)C(=O)C(=O)NC1CC1 (some centres unmarked) | 100 to 500 nM
* CCC[C@H](NC(=O)[C@@H]1C[C@]2(CC(c3cncc(Br)c3)=NO2)CN1C(=O)[C@@H](NC(=O)CC1CCCCC1)C(C)(C)C)C(=O)C(=O)NC1CC1 | < 100 nM
* CCC[C@H](NC(=O)[C@@H]1C[C@]2(CC(c3cccc(Cl)c3)=NO2)CN1C(=O)[C@@H](NC(=O)CC1CCCCC1)C(C)(C)C)C(=O)C(=O)NCC1CC1 | > 500 nM
* CCC[C@H](NC(=O)[C@@H]1C[C@]2(CC(c3cccc(Cl)c3)=NO2)CN1C(=O)CNC(=O)NCc1ccccc1)C(=O)C(=O)NC1CC1 | > 500 nM
* CCC[C@H](NC(=O)[C@@H]1C[C@]2(CC(c3cccc(Cl)c3)=NO2)CN1C(=O)[C@@H](NC(=O)C1CC(=O)N(Cc2cccs2)C1)C(C)(C)C)C(=O)C(=O)NC1CC1 (some centres unmarked) | > 500 nM
* CCC[C@H](NC(=O)[C@@H]1C[C@]2(CC(c3cccc(Cl)c3)=NO2)CN1C(=O)[C@@H](NC(=O)OCCCc1cccnc1)C(C)(C)C)C(=O)C(=O)NC1CC1 | > 500 nM
* CCC[C@H](NC(=O)[C@@H]1C[C@]2(CC(c3cccc(Cl)c3)=NO2)CN1C(=O)[C@@H](NC(=O)CC1CCCCC1)C(C)(C)C)C(=O)C(=O)NCc1cccc(-n2cccn2)c1 | 100 to 500 nM
* CCCC[C@H](NC(=O)CC1CCCCC1)C(=O)N1C[C@@]2(CC(c3cccc(Cl)c3)=NO2)C[C@H]1C(=O)N[C@@H](CCC)C(=O)C(=O)NC1CC1 | > 500 nM
* CCC[C@H](NC(=O)[C@@H]1C[C@]2(CC(c3cccc(OC)c3OC)=NO2)CN1C(=O)[C@@H](NC(=O)OCc1ccccc1)C(C)(C)C)C(=O)C(=O)NC1CC1 | 100 to 500 nM

* * *

The reader will find reported pKi values listed item by item below.
# Study Target: full-length hepatitis C viral protein NS3•4A (Hepatitis C virus genotype 1a, UniProt P27958)
# Construct: hexa-histidine (N); made in house; host or cells: Sf9 insect cells (baculovirus, pVL1392)
# Protocol: biochemical
# Set-up: species or system HCV sub-type strain 1a
# Condition Description: Enzyme Assay 2 (HCV NS3 Peptide Cleavage Assay) activity, apparent Ki class
pKi: −log10 of the molar value.
Parameter Measured: pKi

- CCC[C@H](NC(=O)[C@@H]1C[C@]2(CC(c3cccc(Cl)c3)=NO2)CN1C(=O)CC(C)(C)C)C(=O)C(=O)NC1CC1: < 6.30
- CCC[C@H](NC(=O)[C@@H]1C[C@]2(CC(c3cc(Cl)c(OC)cc3OC)=NO2)CN1C(=O)[C@@H](NC(=O)CC1CCCCCC1)C(C)(C)C)C(=O)C(=O)NC1CC1: > 7.00
- CCC[C@H](NC(=O)[C@@H]1C[C@]2(CC(c3cc(Cl)ccc3OC)=NO2)CN1C(=O)[C@@H](NC(=O)CC1CCCCC1)C(C)(C)C)C(=O)C(=O)NC1CC1: > 7.00
- CNC(=O)C(=O)[C@H](CC1CC1)NC(=O)[C@@H]1C[C@]2(CC(c3cc(Cl)c(OC)cc3OC)=NO2)CN1C(=O)[C@@H](NC(=O)CC1CCCCCC1)C(C)(C)C: > 7.00
- CCC[C@H](NC(=O)[C@@H]1C[C@]2(CC(c3cccc(Cl)c3)=NO2)CN1C(=O)[C@@H](NS(=O)(=O)c1ccc(OC)cc1)C(C)CC)C(=O)C(=O)NC1CC1 (some centres unmarked): < 6.30
- CCC[C@H](NC(=O)[C@@H]1C[C@]2(CC(c3cccc(Cl)c3)=NO2)CN1C(=O)C(NS(=O)(=O)c1ccc(F)cc1)c1ccccc1)C(=O)C(=O)NC1CC1 (some centres unmarked): < 6.30
- CCC[C@H](NC(=O)[C@@H]1C[C@]2(CC(c3ccc(F)c(Cl)c3)=NO2)CN1C(=O)[C@@H](NC(=O)CC(C)(C)C)C(C)(C)C)C(=O)C(N)=O: > 7.00
- CCC[C@H](NC(=O)[C@@H]1C[C@]2(CC(c3cc(Cl)c(OC)cc3C)=NO2)CN1C(=O)[C@@H](NC(=O)OC(C)(C)C)C(C)(C)C)C(=O)C(N)=O: > 7.00
- CCC[C@H](NC(=O)[C@@H]1C[C@]2(CC(c3cccc4cccnc34)=NO2)CN1C(=O)[C@@H](NC(=O)OC(C)(C)C)C(C)(C)C)C(=O)C(=O)NC1CC1: > 7.00
- CCC[C@H](NC(=O)[C@@H]1C[C@]2(CC(c3ccc(F)c(Cl)c3)=NO2)CN1C(=O)[C@@H](NC(=O)CC1CCCCCC1)C(C)(C)C)C(=O)C(N)=O: > 7.00
- CCC[C@H](NC(=O)[C@@H]1C[C@]2(CC(c3cc(Cl)c(OC)cc3C)=NO2)CN1C(=O)[C@@H](NC(=O)OC(C)(C)C)C(C)(C)C)C(=O)C(=O)NC: 6.30 to 7.00

* * *

# Study Target: HCV NS3 protease domain (Hepatitis C virus genotype 1b)
# Construct: The first 181 amino acids of NS3 (residues 1027-1207 of the viral polyprotein); hexa-histidine (C); made in house; host or cells: E. coli BL21/DE3 pLysS
# Protocol: biochemical
# Condition Description: Enzyme Assay 1 (HCV NS3 Protease Domain Peptide Cleavage Assay) activity, apparent Ki class
pKi: −log10 of the molar value.
Parameter Measured: pKi

• CCOc1c(F)cc(C2=NO[C@]3(C2)C[C@@H](C(=O)N[C@@H](CC2CC2)C(=O)C(N)=O)N(C(=O)[C@@H](NC(=O)CC2CCOCC2)C(C)(C)C)C3)cc1Cl [Compound 67] = > 7.00
• C=CCOC(=O)N[C@H](C(=O)N1C[C@@]2(CC(c3ccc(F)cc3)=NO2)C[C@H]1C(=O)N[C@@H](CCC)C(=O)C(=O)NC1CC1)C(C)(C)C [Compound 154] = 6.30 to 7.00
• CCC[C@H](NC(=O)[C@@H]1C[C@]2(CC(c3cccc(Cl)c3)=NO2)CN1C(=O)[C@@H](NC(=O)CC1CCCCCC1)C(C)(C)C)C(=O)C(=O)NC1CC1 [Compound 360] = < 6.30
• CC(C)(C)NC(=O)N[C@H](C(=O)N1C[C@@]2(CC(c3cccc(Cl)c3)=NO2)C[C@H]1C(=O)NC(CC1CCC1)C(=O)C(N)=O)C(C)(C)C (some centres unmarked) [Compound 247] = > 7.00
• CCC[C@H](NC(=O)[C@@H]1C[C@]2(CC(c3cccc(Cl)c3)=NO2)CN1C(=O)[C@@H](NC(=O)[C@@H]1CCC(=O)N1C(C)C)C(C)(C)C)C(=O)C(=O)NC1CC1 [Compound 241] = < 6.30
